- ASSAY INFO: Metabolic stability in mouse liver microsomes assessed as intrinsic clearance per mg of protein
- Format: ADME, Microsome
- CONDITION INFO: read-out: CLH
OBSERVABLE: microsomal CLint (µL/min/mg)

Some solved entries appear below for comparison.
{"MOLECULE": "COCCn1c(=O)[nH]c2ccc(NC(=O)Nc3cccc(C(C)=O)c3)cc2c1=O", "ENDPOINT UNIT": "µL/min/mg", "microsomal CLint": 11.4}
{"MOLECULE": "COCCn1cnc2ccc(NC(=O)Nc3cccc(C(C)=O)c3)c(-c3ccc(F)cc3)c2c1=O", "ENDPOINT UNIT": "µL/min/mg", "microsomal CLint": 456}
{"MOLECULE": "COCCn1cnc2ccc(NC(=O)Nc3cccc(C(C)=O)c3)cc2c1=O", "ENDPOINT UNIT": "µL/min/mg", "microsomal CLint": 8.15}

A: COCCn1c(=O)c2cc(NC(=O)Nc3cccc(C(C)=O)c3)ccc2n(C(C)C)c1=O
B: COCCn1cnc2ccc(NC(=O)Nc3cccc(C(C)=O)c3)c(Br)c2c1=O
# input Exercise: compare A and B ; which one has the greater microsomal CLint? Kindly give the label for the entry you pick.
# output A
(A: 42.6 µL/min/mg, B: 7.5 µL/min/mg)

----------
- ASSAY INFO: Metabolic stability in human liver microsomes assessed as hepatic blood flow
- Format: ADME, Microsome
- CONDITION INFO: read-out: QH
OBSERVABLE: hepatic extraction ratio

Some solved entries appear below for comparison.
{"COMPOUND": "COCCn1cnc2ccc(NC(=O)Nc3cccc(OC)c3)cc2c1=O", "hepatic extraction ratio": 0.184}
{"COMPOUND": "COCCn1cnc2ccc(NC(=O)Nc3cccc(C(=O)C(F)(F)F)c3)cc2c1=O", "hepatic extraction ratio": 0.262}
{"COMPOUND": "COCCn1cnc2ccc(NC(=O)Nc3cccc(C(O)C(F)(F)F)c3)cc2c1=O (stereo not drawn)", "hepatic extraction ratio": 0.415}
{"COMPOUND": "COCCn1cnc2ccc(NC(=O)Nc3cccc(C(C)=O)c3)cc2c1=O", "hepatic extraction ratio": 0.213}
{"COMPOUND": "COCCn1c(=O)c2cc(NC(=O)Nc3cccc(C(C)=O)c3)ccc2n(CCN2CCCCC2)c1=O", "hepatic extraction ratio": 0.567}

I: COCCn1c(=O)c2cc(NC(=O)Nc3cccc(C(C)=O)c3)ccc2n(CCN2CCCC2)c1=O
II: COCCn1c(=O)c2cc(NC(=O)Nc3cccc(C(C)=O)c3)ccc2n(C(C)C)c1=O
III: COCCn1c(=O)[nH]c2ccc(NC(=O)Nc3cccc(C(C)=O)c3)cc2c1=O
# input Order the records, beginning with the lowest hepatic extraction ratio and ending with the highest. Provide the labels, sequenced as the question asks.
# output III, I, II

----------
- ASSAY INFO: Metabolic stability in human liver microsomes assessed as intrinsic clearance per mg of protein
- Format: ADME, Microsome
- CONDITION INFO: read-out: CLH
OBSERVABLE: microsomal CLint (µL/min/mg)

{"RECORD SMILES": "COCCn1c(=O)[nH]c2ccc(NC(=O)Nc3cccc(C(C)=O)c3)cc2c1=O", "microsomal CLint / µL/min/mg": 1.8}
{"RECORD SMILES": "COCCn1c(=O)c2cc(NC(=O)Nc3cccc(C(C)=O)c3)ccc2n(CCN2CCCCC2)c1=O", "microsomal CLint / µL/min/mg": 28.3}
{"RECORD SMILES": "COCCn1cnc2ccc(NC(=O)Nc3cccc(OC)c3)cc2c1=O", "microsomal CLint / µL/min/mg": 4.9}

a: COCCn1cnc2ccc(NC(=O)Nc3cccc(C(C)=O)c3)cc2c1=O
b: COCCn1c(=O)c2cc(NC(=O)Nc3cccc(C(C)=O)c3)ccc2n(C(C)C)c1=O
# input Could you determine which record has the numerically smaller microsomal CLint? Candidates: a and b Kindly give the label for the entry you pick.
# output a

----------
- ASSAY INFO: Metabolic stability in mouse liver microsomes assessed as half life
- Assay type: ADME, Microsome
OBSERVABLE: half-life (min)

Some solved entries appear below for comparison.
{"COMPOUND": "COCCn1c(=O)[nH]c2ccc(NC(=O)Nc3cccc(C(C)=O)c3)cc2c1=O", "OBSERVABLE": "half-life", "EXPERIMENTAL RESULT": 75.2}
{"COMPOUND": "COCCn1c(=O)c2cc(NC(=O)Nc3cccc(C(C)=O)c3)ccc2n(C(C)C)c1=O", "OBSERVABLE": "half-life", "EXPERIMENTAL RESULT": 16.3}
{"COMPOUND": "COCCn1cnc2ccc(NC(=O)Nc3cccc(C(C)=O)c3)c(Br)c2c1=O", "OBSERVABLE": "half-life", "EXPERIMENTAL RESULT": 107}
{"COMPOUND": "COCCn1cnc2ccc(NC(=O)Nc3cccc(OC)c3)cc2c1=O", "OBSERVABLE": "half-life", "EXPERIMENTAL RESULT": 63}
{"COMPOUND": "COCCn1cnc2ccc(NC(=O)Nc3cccc(C(O)C(F)(F)F)c3)cc2c1=O (stereo not given)", "OBSERVABLE": "half-life", "EXPERIMENTAL RESULT": 22}

I: COCCn1c(=O)c2cc(NC(=O)Nc3cccc(C(C)=O)c3)ccc2n(CCN2CCCCC2)c1=O
II: COCCn1c(=O)c2cc(NC(=O)Nc3cccc(C(C)=O)c3)ccc2n(CCN2CCCC2)c1=O
# input Exercise: compare I and II ; which one has the greater half-life? Kindly give the label for the entry you pick.
# output II

P: COCCn1cnc2ccc(NC(=O)Nc3cccc(C(C)=O)c3)c(-c3ccc(F)cc3)c2c1=O
Q: COCCn1cnc2ccc(NC(=O)Nc3cccc(C(=O)C(F)(F)F)c3)cc2c1=O
# input Exercise: compare P and Q ; which one has the greater half-life? Kindly give the label for the entry you pick.
# output Q

----------
- ASSAY INFO: Stability in human plasma assessed as compound remaining after 2 hrs
- Format: ADME, cell-free
- CONDITION INFO: read-out: Stability
OBSERVABLE: remaining at 2 h (%)

Some solved entries appear below for comparison.
{"COMPOUND": "COCCn1cnc2ccc(NC(=O)Nc3cccc(C(C)=O)c3)c(Br)c2c1=O", "remaining at 2 h, %": 10.3}
{"COMPOUND": "COCCn1cnc2ccc(NC(=O)Nc3cccc(C(O)C(F)(F)F)c3)cc2c1=O (stereo not given)", "remaining at 2 h, %": 74.6}
{"COMPOUND": "COCCn1c(=O)c2cc(NC(=O)Nc3cccc(C(C)=O)c3)ccc2n(C(C)C)c1=O", "remaining at 2 h, %": 80.8}
{"COMPOUND": "COCCn1cnc2ccc(NC(=O)Nc3cccc(C(C)=O)c3)cc2c1=O", "remaining at 2 h, %": 16.9}
{"COMPOUND": "COCCn1cnc2ccc(NC(=O)Nc3cccc(C(=O)C(F)(F)F)c3)cc2c1=O", "remaining at 2 h, %": 62}

1: COCCn1c(=O)[nH]c2ccc(NC(=O)Nc3cccc(C(C)=O)c3)cc2c1=O
2: COCCn1cnc2ccc(NC(=O)Nc3cccc(C(C)=O)c3)c(-c3ccc(F)cc3)c2c1=O
# input Could you determine which record has the numerically smaller remaining at 2 h? Candidates: 1 and 2 Kindly give the label for the entry you pick.
# output 2
(2: 44.9%, 1: 97.4%)

P: COCCn1c(=O)c2cc(NC(=O)Nc3cccc(C(C)=O)c3)ccc2n(CCN2CCCCC2)c1=O
Q: COCCn1c(=O)c2cc(NC(=O)Nc3cccc(C(C)=O)c3)ccc2n(CCN2CCCC2)c1=O
R: COCCn1cnc2ccc(NC(=O)Nc3cccc(OC)c3)cc2c1=O
# input Please rank these compounds by remaining at 2 h in descending order. Provide the labels, sequenced as the question asks.
# output P, R, Q
(P: 110%, R: 73.9%, Q: 32.8%)

----------
- ASSAY INFO: Aqueous solubility of compound at pH 7.4
- Assay type: physicochemical
OBSERVABLE: solubility (µg/mL)

{"COMPOUND": "COCCn1c(=O)c2cc(NC(=O)Nc3cccc(C(C)=O)c3)ccc2n(C(C)C)c1=O", "ENDPOINT UNIT": "µg/mL", "EXPERIMENTAL RESULT": 2.8}

1: COCCn1cnc2ccc(NC(=O)Nc3cccc(C(C)=O)c3)c(-c3ccc(F)cc3)c2c1=O
2: COCCn1c(=O)c2cc(NC(=O)Nc3cccc(C(C)=O)c3)ccc2n(CCN2CCCC2)c1=O
# input Could you determine which record has the numerically smaller solubility? Candidates: 1 and 2 Kindly give the label for the entry you pick.
# output 1
(1: 31.9 µg/mL, 2: 124 µg/mL)

----------
- EXPERIMENTAL SYSTEM: COP1-AGTL (Homo sapiens) (UniProt Q96AD5+Q8NHY2)
- Sequence (Q8NHY2 whole entry, looked up): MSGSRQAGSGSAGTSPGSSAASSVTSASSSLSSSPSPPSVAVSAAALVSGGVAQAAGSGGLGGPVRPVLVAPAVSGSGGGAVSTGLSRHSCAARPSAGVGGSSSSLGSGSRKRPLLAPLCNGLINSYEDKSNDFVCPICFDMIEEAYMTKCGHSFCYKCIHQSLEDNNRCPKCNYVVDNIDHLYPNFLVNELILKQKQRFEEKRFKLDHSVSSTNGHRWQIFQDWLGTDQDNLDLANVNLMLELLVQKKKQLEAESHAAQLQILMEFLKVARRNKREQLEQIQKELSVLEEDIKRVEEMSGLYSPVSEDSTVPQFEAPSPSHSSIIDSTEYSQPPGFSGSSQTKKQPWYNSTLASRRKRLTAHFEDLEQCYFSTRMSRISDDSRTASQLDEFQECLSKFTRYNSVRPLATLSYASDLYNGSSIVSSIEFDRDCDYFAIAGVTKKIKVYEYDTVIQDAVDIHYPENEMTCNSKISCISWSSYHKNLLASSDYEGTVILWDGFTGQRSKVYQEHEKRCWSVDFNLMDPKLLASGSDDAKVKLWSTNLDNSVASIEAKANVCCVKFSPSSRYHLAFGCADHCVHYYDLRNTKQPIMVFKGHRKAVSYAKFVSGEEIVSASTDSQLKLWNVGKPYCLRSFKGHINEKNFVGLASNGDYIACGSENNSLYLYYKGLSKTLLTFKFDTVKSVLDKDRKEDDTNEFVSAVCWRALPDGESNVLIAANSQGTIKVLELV
- Sequence (Q96AD5 whole entry, looked up): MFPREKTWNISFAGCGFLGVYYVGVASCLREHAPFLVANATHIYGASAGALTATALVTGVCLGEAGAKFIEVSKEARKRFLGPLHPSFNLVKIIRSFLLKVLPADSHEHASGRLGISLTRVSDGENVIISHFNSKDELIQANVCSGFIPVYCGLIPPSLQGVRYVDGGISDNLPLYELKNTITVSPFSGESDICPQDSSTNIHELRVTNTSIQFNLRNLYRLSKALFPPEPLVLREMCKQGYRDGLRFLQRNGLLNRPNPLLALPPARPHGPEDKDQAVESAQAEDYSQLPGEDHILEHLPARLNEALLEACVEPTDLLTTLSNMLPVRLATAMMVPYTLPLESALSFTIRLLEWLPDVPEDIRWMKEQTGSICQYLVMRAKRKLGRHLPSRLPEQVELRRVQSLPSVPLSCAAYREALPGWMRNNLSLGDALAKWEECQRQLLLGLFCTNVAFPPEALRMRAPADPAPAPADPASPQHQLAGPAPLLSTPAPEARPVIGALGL
- ASSAY INFO: Induction of COP1 to ATGL stabilization (unknown origin) expressed in HEK293-A cells assessed as reduction in ATGL ubiquitination incubated for 6 hrs by Western blotting analysis
- Format: cell-based
Activity calls are given as the source filed them. The rule behind the calls is not given here.
Outcome field: choose from active, inactive

{"MOLECULE": "COCCn1cnc2ccc(NC(=O)Nc3ccc(C(F)(F)F)cc3)cc2c1=O", "LABEL": "inactive"}
{"MOLECULE": "COCCn1cnc2ccc(NC(=O)Nc3ccccc3)cc2c1=O", "LABEL": "inactive"}
{"MOLECULE": "COCCn1cnc2ccc(NC(=O)Nc3ccc(F)cc3)cc2c1=O", "LABEL": "inactive"}

# input How was `COCCn1cnc2ccc(NC(=O)Nc3ccc(OC)cc3)cc2c1=O` classified in this test?
# output active

# input How was `COCCCn1cnc2ccc(NC(=O)Nc3cccc(C(C)=O)c3)cc2c1=O` classified in this test?
# output active

# input How was `COCCn1cnc2ccc(NC(=O)Nc3cccc(OC)c3)cc2c1=O` classified in this test?
# output active

# input How was `COCCn1c(=O)c2cc(NC(=O)Nc3cccc(C(C)=O)c3)ccc2n(C(C)C)c1=O` classified in this test?
# output inactive
